- Assay: NCI Yeast Anticancer Drug Screen. Data for the cln2 rad14 strain (AID 165);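 note: 0% = growth equal to vehicle treated cultures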
- Condition notes: S. cerevisiae cln2 rad14 strain, active compounds read high; at 50.0 µM unless noted
About 79,000 compounds went through this panel and 15% of them were active in at least one assay; those are over-represented in the sample as a whole.
Please respond with reported growth inhibition for every item in the list.
Give the value in % but do not write % after it.

Please give the measured growth inhibition for this compound: `CC(C)(C)OC(=O)COc1ccc(NC(=O)COc2ccc(Cl)c(Cl)c2)cc1`
-28.8

Please give the measured growth inhibition for this compound: `C[n+]1ccc(/C=N/O)cc1`
2.95

Please give the measured growth inhibition for this compound: `CCN(CC)CC(=O)Nc1ccc2c(c1)C(=O)c1ccc(NC(=O)CN(CC)CC)cc1C2=O`
16.4

Please give the measured growth inhibition for this compound: `Cc1ccc(SCC(O)=C2C(=O)CCCC2=O)cc1`
-0.45

Please give the measured growth inhibition for this compound: CC1(C)OC2COC(OCc3ccccc3)C(OCc3ccccc3)C2O1 (stereo unspecified)
7.35

Please give the measured growth inhibition for this compound: `Nc1ncnc(Nc2ccc(Cl)cc2Cl)n1`
1.85

Please give the measured growth inhibition for this compound: C/C(=N/NC(N)=O)C1CCc2ccccc2C1 (stereo unspecified)
1.95

Please give the measured growth inhibition for this compound: CC1=CC(=O)[C@@H](O)[C@@]2(C)C1C[C@H]1OC(=O)[C@H](C/C=C(/C)C(C)C)[C@H]3C(C)C(O)C4(O)OC[C@@]31C42 (stereo partly specified)
81.7

Please give the measured growth inhibition for this compound: `Cc1ccc2c(ccc3nc(N)nc(N)c32)c1`
-42.9

Please give the measured growth inhibition for this compound: `COc1ccc(CCNC(=O)CCN2C(=O)CCC2=O)cc1OC`
-3.25

Please give the measured growth inhibition for this compound: `Cc1ccc2[nH]c3c(c2c1)C(=O)CCC3`
-20.7
